target: Nsp3 SUD-M (SARS-CoV-2, UniProt P0DTD1 819-2763); test: FP
METRIC: Kd (µM)
Field format: number, assumed µM, no unit text.

The binder listed as FTEEDLHFVLYGVTPS [PRDM14_(197–213)] has a reported Kd of 37
